Test: qHTS Assay for Lipid Storage Modulators in Drosophila S3 Cells
Settings: BODIPY lipid droplet fluorescence, 18-24 h, cells fed with added oleic acid; series mostly up to 46.1 µM
Description: NIH Molecular Libraries Probe Production Centers Network [MLPCN] NIH Chemical Genomics Center [NCGC] […] Triacsin C (Sigma-Aldrich T-4540), an inhibitor of long-chain fatty acyl CoA synthetase that blocks synthesis of triglycerides, was used as a positive control for lipid under-storage. […] Fluorescence was detected by excitation of the fluorophores with a 488-nm laser on an Acumen Explorer (TTP Lab Tech). […] Cells were detected using channel 3 (575-640 nm) with 5-um width and 100-um depth filters. […]
Among all 320,000 compounds or so, about 2,100 (0.66%) were called active. Not shown: some 53% with an inconclusive outcome. Calls come from the whole dose curve; as a rule, active = well fitted inhibition curve with a large enough effect in the signal ratio, with a control signal flat (not every such curve was filed as active); inconclusive = small, poorly fitted or top-dose-only effect, or effect the other way, or a change in a side signal; inactive = flat fitted curve, though single readings scatter; the % refers to the signal ratio. Many of the other results were omitted from the sample, so actives are more common in it than they were.
Field 'call' accepts T for active, F for inactive

Hi team, can someone confirm the assay call for "C/C(=N\O)C(=O)Nc1ccccc1" ? F

Status in this test for Cc1cc(OCC(O)CNC(C)(C)C)ccc1Cl (stereo unspecified) ? F

Recorded test outcome, item "O=C(NCc1ccco1)/C(=C/c1cccc(C(F)(F)F)c1)c1nc2ccccc2[nH]1" F

Hi, sorry to bother you, what did the test record for "O=C(COC(=O)c1c2c(nc3ccccc13)/C(=C\c1cccs1)CCC2)Nc1ccccc1Cl" ? T

Would you mind telling me which call this test gave "O=C(COC(=O)c1c2c(nc3ccccc13)CCCC2)c1cccs1" ? F

Recorded test call requested for "O=C(/C(=C/c1cccc(Cl)c1)c1nc2ccccc2[nH]1)c1ccccc1" T

Per the records of this test, what outcome belongs to "CCn1c(=O)c2ccccc2n(CC(=O)NCCC2=CCCCC2)c1=O" ? F

Tell me the assay call for "O=C(COC(=O)c1ccccn1)Nc1cccc(Cl)c1Cl" please. F

Lab log entry: "O=C(COC(=O)c1ccccn1)Nc1ccccc1Cl" — outcome as called in the assay? F

Returns: the outcome recorded for "O=C(COC(=O)/C=C/c1cccs1)Nc1ccccc1Cl" in this assay. F

For "O=C(COC(=O)c1cccs1)Nc1ccccc1C(F)(F)F" , what call appears in the results of this test? F

----------
test: qHTS Assay for Lipid Storage Modulators in Drosophila S3 Cells; settings: BODIPY lipid droplet fluorescence, 18-24 h, cells fed with added oleic acid; measured here: cell count max response;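 for cell number change: cells counted by Cell Tracker Red CMTPX staining in the red channel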
About 2,100 (0.66%) of roughly 320,000 compounds were called active. Another 53% or so got no clear call; they are omitted. Only a selection was taken, and actives are over-represented in it overall.
quantity: cell number change (%)
Write the answer as a number in %, unit excluded.

Query (compound): "COc1ccccc1NC(=O)c1nc(S(=O)(=O)Cc2ccccc2)ncc1Cl" ; field requested: cell number change -4.72

Which cell number change is listed for "COc1ccc(-c2cc(=O)oc3cc(OCc4nn[nH]n4)ccc23)cc1" ? 14.9

Any idea what its cell number change is? The compound is CC1CCCC(C)N1C(=O)Cn1cc(C#N)c2ccccc21 (stereo unspecified) 9.53

Look up cell number change for this compound: "COC(=O)c1ccccc1NC(=O)c1nc(S(=O)(=O)Cc2ccccc2)ncc1Cl" -21.2

Quick one: cell number change of "Cc1ccc(/C=C2/SC(=S)N(CCC(=O)N3CCN(C)CC3)C2=O)cc1" ? 1.31

Please give the measured cell number change for this compound: "COc1ccc(Cl)cc1NC(=O)COC(=O)c1c(-c2ccccc2)noc1C" -24.6

Name the reported cell number change value associated with the compound "COc1cnc(-c2ccccc2)nc1Oc1ccccc1C" -26.8

Request the reported cell number change associated with "COc1ccc(OC)c(NC(=O)COC(=O)c2c(C)noc2C)c1" -7.27

// cell number change lookup, key: "O=C(CN1C(=O)CCS(=O)(=O)c2ccccc21)NCc1ccc2c(c1)OCO2" -18.6

Requested read-out: cell number change. Entry: "COc1cc(/C=N/NC(=O)COc2ccc(-n3cnnn3)cc2)ccc1OCC(N)=O" 7.43

What cell number change value was documented for this compound, "COc1cnc(-c2ccccc2)nc1Oc1cccc(C)c1C" ? 7.32
